The reported measurements were obtained from patent US20250353864A1.

measured.on: EGFR Δ746-750/C797S mutant (Homo sapiens (Human), UniProt P00533, C797S/DEL746-750)
Sequence (P00533 other isoform, or with tags, fused parts or gaps C797S/del 1-668/del 746-750 limits assumed): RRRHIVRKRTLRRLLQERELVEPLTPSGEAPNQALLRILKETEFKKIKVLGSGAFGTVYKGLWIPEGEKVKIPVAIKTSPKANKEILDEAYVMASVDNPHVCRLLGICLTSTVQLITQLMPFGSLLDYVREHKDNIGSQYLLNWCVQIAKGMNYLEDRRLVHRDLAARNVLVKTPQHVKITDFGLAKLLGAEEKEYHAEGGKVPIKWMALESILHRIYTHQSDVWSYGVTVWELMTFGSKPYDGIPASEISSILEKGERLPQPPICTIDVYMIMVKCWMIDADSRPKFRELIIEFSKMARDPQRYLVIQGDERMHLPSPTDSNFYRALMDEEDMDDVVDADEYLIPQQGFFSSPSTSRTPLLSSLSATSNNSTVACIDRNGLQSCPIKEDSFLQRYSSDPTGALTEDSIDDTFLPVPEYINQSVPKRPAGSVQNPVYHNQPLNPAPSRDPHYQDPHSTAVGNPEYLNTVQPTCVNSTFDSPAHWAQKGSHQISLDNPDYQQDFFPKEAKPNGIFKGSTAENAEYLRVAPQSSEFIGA
assay.name: HotSpot radiometric kinase assay, EGFR Δ746-750/C797S mutant
condition.description: 10 μM ATP
Here, each record is paired with measured log10 of IC50 data.
Values reflect log10 of reported IC50 (nM).

Reference set, count: 5
- compound: "CCOc1nn(CCO)c2c1/C=C/c1n[nH]c3ccc(cc13)-c1cnn(C)c1O[C@H](C)[C@H]1CCCN1C2 (single isomer, unassigned) [compound 241]"
  log10 of IC50: -0.51
- compound: "Cc1c2c(nn1C)/C=C/c1n[nH]c3ccc(cc13)-c1cnn(C)c1O[C@@H](C)CN(C)C2 [Example 126]"
  log10 of IC50: 1.30
- compound: "Cc1nn(C)c2c1/C=C/c1n[nH]c3ccc(cc13)-c1cnn(C)c1O[C@@H](C)CN(C1CC1)C2 [Example 161]"
  log10 of IC50: 1.13
- compound: "CCN1Cc2c(c(OC(C)C)nn2C[C@H](C)O)/C=C/c2n[nH]c3ccc(cc23)-c2cnn(C)c2O[C@H](C)C1 [Example 227]"
  log10 of IC50: 0.83
- compound: "Cc1nn(C)c2c1-c1ccc3[nH]nc(c3c1)/C=C/c1c(OC(C)C)nn(CCO)c1CN(C(C)C)C[C@@H](C)O2 [Example 202]"
  log10 of IC50: 1.32

stdin: // returns reported log10 of IC50 for input CCOc1nn(CCO)c2c1/C=C/c1n[nH]c3ccc(cc13)-c1cnn(C)c1O[C@H](C)CN(C(C)=O)C2 [Example 217]
stdout: 0.29

stdin: // returns reported log10 of IC50 for input C[C@H]1CN(C)Cc2nn3c(c2/C=C/c2n[nH]c4ccc(cc24)-c2cnn(C)c2O1)CN(CCS(C)(=O)=O)CC3 [Example 166]
stdout: 0.91

stdin: // returns reported log10 of IC50 for input CCc1nn(C)c2c1/C=C/c1n[nH]c3ccc(cc13)-c1cnn(C)c1O[C@@H](C)CCO2 [Ex. 37]
stdout: 1.70

stdin: // returns reported log10 of IC50 for input CCOc1nn(CCO)c2c1/C=C/c1n[nH]c3ccc(cc13)-c1c(C)nn(C)c1O[C@@H](C)CN(C(C)C)C2 [Example 142]
stdout: 0.12

stdin: // returns reported log10 of IC50 for input C[C@H]1CN(C)Cc2c(c(OCC(F)(F)F)nn2C)/C=C/c2n[nH]c3ccc(cc23)-c2cnn(C)c2O1 [Example 162]
stdout: 1.53

stdin: // returns reported log10 of IC50 for input C[C@H]1CN(C)Cc2c(c(OC3CCN(S(C)(=O)=O)CC3)nn2CCO)/C=C/c2n[nH]c3ccc(cc23)-c2cnn(C)c2O1 [Example 175]
stdout: 0.95

stdin: // returns reported log10 of IC50 for input CC(C)Oc1nn([C@@H](C)CO)c2c1/C=C/c1n[nH]c3cc(F)c(cc13)-c1cnn(C)c1O[C@@H](C)CN(C)C2 [Example 200]
stdout: 0.29

stdin: // returns reported log10 of IC50 for input CCn1ncc2c1O[C@@H](C)CN(C)Cc1c(c(OC(C)C)nn1CCO)/C=C/c1n[nH]c3ccc-2cc13 [Example 169]
stdout: 0.20

stdin: // returns reported log10 of IC50 for input COCc1nn(CCO)c2c1/C=C/c1n[nH]c3ccc(cc13)-c1cnn(C)c1O[C@@H](C)CN(C)C2 [Example 261]
stdout: 0.77
